# Measurement Conditions: in ethanol, 308.15 K
Reported Property: solubility (mole fraction)
Reply: number alone, nothing else.

# solubility (mole fraction) (molecule: Nc1nc(Cl)cc(Cl)n1 ) is 0.00251

====

# Measurement Conditions: in n-propanol, 318.15 K
Reported Property: solubility (mole fraction)
Reply: number alone, nothing else.

# solubility (mole fraction) (compound: Nc1nc(Cl)cc(Cl)n1 ) is 0.00313

====

# Measurement Conditions: in n-propanol, 278.15 K
Reported Property: solubility (mole fraction)
Reply: number alone, nothing else.

# solubility (mole fraction) (compound: Nc1nc(Cl)cc(Cl)n1 ) is 0.000792

====

# Measurement Conditions: in ethanol, 288.15 K
Reported Property: solubility (mole fraction)
Reply: number alone, nothing else.

# solubility (mole fraction) (compound: Nc1nc(Cl)cc(Cl)n1 ) is 0.00132
